// provenance: patent US10253006B2

Tested on: antibody 1 raised against Immunogen IV
Assay: Biochip competitive immunoassay, antibody 1
Assay type: binding, sheep
Conditions: Antibody 1; Hapten B-HRP conjugate
Recorded IC50 determines the group label, using c1 (below 1 ng/mL), c2 (1 ng/mL to below 8 ng/mL), c3 (8 ng/mL or more)

>  <Molecule>
Fc1ccc(N2CCNCC2)cc1

>  <Assigned class>
c2

$$$$
>  <Molecule>
Cc1cccc(N2CCNCC2)c1

>  <Assigned class>
c1

$$$$
>  <Molecule>
Clc1cccc(N2CCNCC2)c1

>  <Assigned class>
c1

$$$$
>  <Molecule>
FC(F)(F)c1cccc(N2CCNCC2)c1

>  <Assigned class>
c2

$$$$
>  <Molecule>
COc1ccc(N2CCNCC2)cc1

>  <Assigned class>
c1

$$$$
>  <Molecule>
OC1(c2ccc(Cl)cc2)CCNCC1 [4-(4-Chlorophenyl)-4-Hydroxypiperidine]

>  <Assigned class>
c3

$$$$
>  <Molecule>
COc1ccccc1N1CCNCC1

>  <Assigned class>
c3

$$$$
>  <Molecule>
c1ccc(CN2CCNCC2)cc1

>  <Assigned class>
c3

$$$$

====

System: antibody 2 raised against Immunogen II
Assay type: binding, sheep
Conditions: Antibody 2; standardized to 1-(3-chlorophenyl)piperazine monohydrochloride; Hapten B-HRP conjugate
Measured Cross-reactivity (%), listed per entry for reference.
Recorded endpoint: Cross-reactivity (%)

>  <Molecule>
Oc1ccc(N2CCNCC2)cc1 [1-(4-hydroxyphenyl)piperazine]

>  <Measurement unit>
%

>  <Result operator>
=

>  <Meas value>
10

$$$$
>  <Molecule>
COc1cc(CCN)cc(OC)c1OC

>  <Measurement unit>
%

>  <Result operator>
<

>  <Meas value>
1

$$$$
>  <Molecule>
c1ccc(CN2CCNCC2)cc1

>  <Measurement unit>
%

>  <Result operator>
<

>  <Meas value>
1

$$$$
>  <Molecule>
CNC(C)C(=O)c1ccc(C)cc1 (stereo not shown)

>  <Measurement unit>
%

>  <Result operator>
<

>  <Meas value>
1

$$$$
>  <Molecule>
Fc1ccc(N2CCNCC2)cc1

>  <Measurement unit>
%

>  <Result operator>
=

>  <Meas value>
38

$$$$
>  <Molecule>
CCCCCn1cc(C(=O)Cc2ccccc2OC)c2ccccc21

>  <Measurement unit>
%

>  <Result operator>
<

>  <Meas value>
1

$$$$
>  <Molecule>
COC(=O)[C@@H]1C[C@H](OC(C)=O)C(=O)[C@H]2[C@@]1(C)CC[C@H]1C(=O)O[C@H](c3ccoc3)C[C@]21C

>  <Measurement unit>
%

>  <Result operator>
<

>  <Meas value>
1

$$$$
>  <Molecule>
CCCCCn1cc(C(=O)c2cccc3ccccc23)c2ccccc21

>  <Measurement unit>
%

>  <Result operator>
<

>  <Meas value>
1

$$$$
>  <Molecule>
OC1(c2ccc(Cl)cc2)CCNCC1 [4-(4-Chlorophenyl)-4-Hydroxypiperidine]

>  <Measurement unit>
%

>  <Result operator>
<

>  <Meas value>
1

$$$$
>  <Molecule>
COc1ccc(N2CCNCC2)cc1

>  <Measurement unit>
%

>  <Result operator>
=

>  <Meas value>
20

$$$$
>  <Molecule>
FC(F)(F)c1cccc(N2CCNCC2)c1

>  <Measurement unit>
%

>  <Result operator>
=

>  <Meas value>
61

$$$$
>  <Molecule>
c1ccc(N2CCNCC2)cc1

>  <Measurement unit>
%

>  <Result operator>
=

>  <Meas value>
140

$$$$
>  <Molecule>
Cc1cccc(N2CCNCC2)c1

>  <Measurement unit>
%

>  <Result operator>
=

>  <Meas value>
230

$$$$
>  <Molecule>
Clc1cccc(N2CCNCC2)c1

>  <Measurement unit>
%

>  <Result operator>
=

>  <Meas value>
100

$$$$
>  <Molecule>
O=c1n(CCCN2CCN(c3cccc(Cl)c3)CC2)nc2ccccn12

>  <Measurement unit>
%

>  <Result operator>
<

>  <Meas value>
1

$$$$
>  <Molecule>
Nc1cccc(C(F)(F)F)c1O [3-Amino-2-hydroxybenzotrifluoride]

>  <Measurement unit>
%

>  <Result operator>
<

>  <Meas value>
1

$$$$
>  <Molecule>
CCC(C(=O)c1ccc2c(c1)OCO2)N1CCCC1 (stereo not shown)

>  <Measurement unit>
%

>  <Result operator>
<

>  <Meas value>
1

$$$$
>  <Molecule>
COc1ccccc1N1CCNCC1

>  <Measurement unit>
%

>  <Result operator>
=

>  <Meas value>
34

$$$$
>  <Molecule>
CN1CCNC(c2ccccc2)C1 (stereo not shown)

>  <Measurement unit>
%

>  <Result operator>
<

>  <Meas value>
1

$$$$
